Molecular target: Avi-KRAS G12D (1-169) GppNHp/RAF1 RBD-3×FLAG (52-151) (Homo sapiens, UniProt P01116, G12D)
Construct: Avi-KRAS G12D (1-169) GppNHp
Sequence (P01116 1-169 isoform P01116-2 G12D limits assumed): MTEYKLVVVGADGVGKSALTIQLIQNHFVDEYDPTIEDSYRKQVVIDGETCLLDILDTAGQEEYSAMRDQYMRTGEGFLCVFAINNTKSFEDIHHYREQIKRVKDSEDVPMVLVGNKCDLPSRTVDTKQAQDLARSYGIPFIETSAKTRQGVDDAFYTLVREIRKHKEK
Experiment: HTRF Raf1-KRAS G12D-GppNHp disruption assay
Type: biochemical
Conditions: 1 h incubation
pIC50: −log10 of the molar value.
readout label: pIC50

{"compound": "Nc1nc2c(-c3c(C(F)(F)F)cc4c(N5CC[C@@H]6CCNC[C@@H]65)nc(OCC56CCCN5CCC6)nc4c3F)ccc(F)c2s1", "readout label": "pIC50", "val": "5.00 to 6.00"}
{"compound": "CN1C[C@H](OC(F)F)C[C@H]1COc1nc(NC2CNC2)c2cc(Cl)c(-c3ccc(F)c4sc(N)nc34)c(F)c2n1", "readout label": "pIC50", "val": "5.00 to 6.00"}
{"compound": "N#Cc1c(N)sc2c(F)ccc(-c3c(Cl)cc4c(N5C[C@H]6CC[C@@H](C5)N6)nc(OC[C@@]56CCCN5C[C@H](F)C6)nc4c3F)c12", "readout label": "pIC50", "val": "≥ 7.00"}
{"compound": "NCC(=O)N1CC[C@@H]2[C@H]1CN2c1nc(OCC23CCCN2CCC3)nc2c(F)c(-c3ccc(F)c4sc(N)nc34)c(C(F)(F)F)cc12", "readout label": "pIC50", "val": "6.00 to 7.00"}
{"compound": "CCc1cc2c(N3CCNCC3)nc(OC[C@@H]3CCCN3C)nc2c(F)c1-c1ccc(F)c2sc(N)nc12", "readout label": "pIC50", "val": "4.52 to 5.00"}
{"compound": "C#Cc1cc2c(N3CCNCC3)ncnc2c(F)c1-c1ccc(F)c2sc(N)nc12", "readout label": "pIC50", "val": "4.52 to 5.00"}
{"compound": "C[C@@H]1C[C@@H](N(C)c2nc(OC[C@@]34CCCN3C[C@H](F)C4)nc3c(F)c(-c4ccc(F)c5sc(N)c(C#N)c45)ccc23)CN1", "readout label": "pIC50", "val": "5.00 to 6.00"}
{"compound": "CN1CCC[C@H]1COc1nc(N2CCNCC2)c2cc(CC#N)c(-c3ccc(F)c4sc(N)nc34)c(F)c2n1", "readout label": "pIC50", "val": "4.52 to 5.00"}
{"compound": "CN1CCC1COc1nc(NC2CNC2)c2cc(Cl)c(-c3ccc(F)c4sc(N)nc34)c(F)c2n1 (stereo not shown)", "readout label": "pIC50", "val": "4.52 to 5.00"}
{"compound": "N#Cc1c(N)sc2c(F)ccc(-c3c(C(F)F)cc4c(N5C[C@H]6CC[C@@H](C5)N6)nc(OC[C@@]56CCCN5C[C@H](F)C6)nc4c3F)c12", "readout label": "pIC50", "val": "6.00 to 7.00"}
{"compound": "CN1C[C@H](F)C[C@H]1COc1nc(N2CCNCC2)c2cc(C(F)(F)F)c(-c3ccc(F)c4sc(N)nc34)c(F)c2n1", "readout label": "pIC50", "val": "5.00 to 6.00"}
{"compound": "Nc1nc2c(F)ccc(-c3c(-c4ccoc4)cc4c(NC5CNC5)nc(OCC56CCCN5CCC6)nc4c3F)c2s1", "readout label": "pIC50", "val": "6.00 to 7.00"}
{"compound": "CN(c1nc(OCC23CCCN2CCC3)nc2c(F)c(-c3ccc(F)c4sc(N)nc34)c(Cl)cc12)C1CN(C(=O)CN)C1", "readout label": "pIC50", "val": "4.52 to 5.00"}

Where do these numbers come from? They come from patent US20240246954A1.
